Origin of values: patent US7947688B2

Molecular target: α2-GABAA receptor (Rattus norvegicus, UniProt P18508+P23576)
Assay: Ligand-binding assay, radiolabeled flumazenil competition, rat spinal cord membranes
Details: read-out: % Inhibition (10^−7 M), affinity for α2-GABAA receptor
Would you mind telling me the reported inhibition at 0.1 µM of each entry?
Field format: number, assumed %, no unit text.

Request: Fill in the recorded inhibition at 0.1 µM for this compound, with α2-GABAA receptor (Rattus norvegicus, UniProt P18508+P23576) as test system: CCN(c1cccc(-c2ccnc3c(C(=O)c4ccc(C)cc4)cnn23)c1)S(C)(=O)=O
Response: 20.9

Request: α2-GABAA receptor (Rattus norvegicus, UniProt P18508+P23576) / inhibition at 0.1 µM / CN(c1cccc(-c2ccnc3c(C(=O)c4ccccn4)cnn23)c1)S(C)(=O)=O : value?
Response: 23.3

Request: Hello, I am looking for reported inhibition at 0.1 µM with α2-GABAA receptor (Rattus norvegicus, UniProt P18508+P23576) for CCN(c1cccc(-c2ccnc3c(C(=O)c4ccc(OC)cc4)cnn23)c1)S(C)(=O)=O . Could you help?
Response: 24

Request: Provide the documented inhibition at 0.1 µM with α2-GABAA receptor (Rattus norvegicus, UniProt P18508+P23576) as the system for C#CCN(c1cccc(-c2ccnc3c(C#N)cnn23)c1)S(=O)(=O)C(C)C
Response: 0

Request: Any idea what inhibition at 0.1 µM came out for CCN(c1cccc(-c2ccnc3c(C(=O)c4ccccc4)cnn23)c1)S(=O)(=O)CC on α2-GABAA receptor (Rattus norvegicus, UniProt P18508+P23576)?
Response: 44.9

Request: Lab note: need inhibition at 0.1 µM for CN(c1cccc(-c2ccnc3c(C(=O)c4cccs4)cnn23)c1)S(=O)(=O)c1cccc(C#N)c1 on α2-GABAA receptor (Rattus norvegicus, UniProt P18508+P23576), anyone have it?
Response: 39.1

Request: State its inhibition at 0.1 µM on α2-GABAA receptor (Rattus norvegicus, UniProt P18508+P23576): C#CCN(c1cccc(-c2ccnc3c(C(=O)c4ccc(C)cc4)cnn23)c1)S(C)(=O)=O
Response: 31.6

Request: // lookup inhibition at 0.1 µM | system=α2-GABAA receptor (Rattus norvegicus, UniProt P18508+P23576) | key= N#Cc1cnn2c(-c3cccc(N4CCCS4(=O)=O)c3)ccnc12
Response: 0

Request: API: value(readout=inhibition at 0.1 µM, system=α2-GABAA receptor (Rattus norvegicus, UniProt P18508+P23576)) for record CC(C)S(=O)(=O)N(C)c1cccc(-c2ccnc3c(C#N)cnn23)c1
Response: 6.9

Request: Give α2-GABAA receptor (Rattus norvegicus, UniProt P18508+P23576) inhibition at 0.1 µM for CCN(c1cccc(-c2ccnc3c(C(=O)c4ccccc4)cnn23)c1)S(C)(=O)=O
Response: 63.4

Request: Field: inhibition at 0.1 µM (α2-GABAA receptor (Rattus norvegicus, UniProt P18508+P23576)). Entry: CN(c1cccc(-c2ccnc3c(C(=O)c4cccs4)cnn23)c1)S(=O)(=O)c1cccs1
Response: 65.1

Request: Which inhibition at 0.1 µM is reported with α2-GABAA receptor (Rattus norvegicus, UniProt P18508+P23576) for this entry: CCS(=O)(=O)N(C)c1cccc(-c2ccnc3c(C(=O)c4ccc(F)cc4)cnn23)c1 ?
Response: 1

Request: Which inhibition at 0.1 µM is reported with α2-GABAA receptor (Rattus norvegicus, UniProt P18508+P23576) for this entry: CCS(=O)(=O)N(C)c1cccc(-c2ccnc3c(C(=O)c4cccs4)cnn23)c1 ?
Response: 40.3

Request: Hello, I am looking for reported inhibition at 0.1 µM with α2-GABAA receptor (Rattus norvegicus, UniProt P18508+P23576) for CCN(c1cccc(-c2ccnc3c(C(=O)c4ccc(F)cc4)cnn23)c1)S(C)(=O)=O . Could you help?
Response: 0

Request: Form: Entry = CCN(c1cccc(-c2ccnc3c(C#N)cnn23)c1)S(=O)(=O)C(C)C | System = α2-GABAA receptor (Rattus norvegicus, UniProt P18508+P23576) | inhibition at 0.1 µM = ____
Response: 24.5

Request: Kindly state the measured inhibition at 0.1 µM obtained for CN(c1cccc(-c2ccnc3c(C(=O)c4ccc(F)cc4)cnn23)c1)S(C)(=O)=O with α2-GABAA receptor (Rattus norvegicus, UniProt P18508+P23576).
Response: 16.8

Request: Value wanted: inhibition at 0.1 µM (α2-GABAA receptor (Rattus norvegicus, UniProt P18508+P23576)) of entry CN(c1cccc(-c2ccnc3c(C(=O)c4cccs4)cnn23)c1)S(=O)(=O)C1CC1
Response: 36.5

Request: Item CN(c1cccc(-c2ccnc3c(C(=O)c4cccs4)cnn23)c1)S(=O)(=O)c1ccc(C#N)cc1 with α2-GABAA receptor (Rattus norvegicus, UniProt P18508+P23576) - inhibition at 0.1 µM?
Response: 0

Request: Write down the reported inhibition at 0.1 µM of CN(c1cccc(-c2ccnc3c(C(=O)c4ccccc4)cnn23)c1)S(C)(=O)=O , test system: α2-GABAA receptor (Rattus norvegicus, UniProt P18508+P23576).
Response: 36.7

Request: Provide the documented inhibition at 0.1 µM with α2-GABAA receptor (Rattus norvegicus, UniProt P18508+P23576) as the system for O=C(c1cccs1)c1cnn2c(-c3cccc(N4CCCS4(=O)=O)c3)ccnc12
Response: 24.2

Request: Can you look up inhibition at 0.1 µM on α2-GABAA receptor (Rattus norvegicus, UniProt P18508+P23576) for Cc1ccc(C(=O)c2cnn3c(-c4cccc(N(C)S(C)(=O)=O)c4)ccnc23)cc1 ?
Response: 0

Request: Give α2-GABAA receptor (Rattus norvegicus, UniProt P18508+P23576) inhibition at 0.1 µM for C#CCN(c1cccc(-c2ccnc3c(C#N)cnn23)c1)S(C)(=O)=O
Response: 2.9

Request: Which measured inhibition at 0.1 µM belongs to CN(c1cccc(-c2ccnc3c(C(=O)c4cccs4)cnn23)c1)S(=O)(=O)CC(F)(F)F , tested on α2-GABAA receptor (Rattus norvegicus, UniProt P18508+P23576)?
Response: 0

Request: What inhibition at 0.1 µM appears in the records for this compound with α2-GABAA receptor (Rattus norvegicus, UniProt P18508+P23576)? C=CS(=O)(=O)N(C)c1cccc(-c2ccnc3c(C(=O)c4cccs4)cnn23)c1
Response: 41.2

Request: Entry CN(c1cccc(-c2ccnc3c(C(=O)c4cccs4)cnn23)c1)S(=O)(=O)c1ccccc1Cl , system α2-GABAA receptor (Rattus norvegicus, UniProt P18508+P23576): what inhibition at 0.1 µM was measured?
Response: 13.8

Request: Hello, I am looking for reported inhibition at 0.1 µM with α2-GABAA receptor (Rattus norvegicus, UniProt P18508+P23576) for C#CCN(c1cccc(-c2ccnc3c(C#N)cnn23)c1)S(=O)(=O)CC . Could you help?
Response: 17.4

Request: Quick check: inhibition at 0.1 µM on α2-GABAA receptor (Rattus norvegicus, UniProt P18508+P23576), item CCCN(c1cccc(-c2ccnc3c(C(=O)c4cccs4)cnn23)c1)S(=O)(=O)CC ?
Response: 0

Request: Query for α2-GABAA receptor (Rattus norvegicus, UniProt P18508+P23576): what inhibition at 0.1 µM does the record show for CCN(c1cccc(-c2ccnc3c(C#N)cnn23)c1)S(=O)(=O)CC ?
Response: 13.4

Request: Recorded inhibition at 0.1 µM for CN(c1cccc(-c2ccnc3c(C(=O)c4cccs4)cnn23)c1)S(=O)(=O)c1cccc(Cl)c1 with α2-GABAA receptor (Rattus norvegicus, UniProt P18508+P23576), please?
Response: 0

Request: Provide value of inhibition at 0.1 µM for this record tested with α2-GABAA receptor (Rattus norvegicus, UniProt P18508+P23576): Cc1nc(C)c(S(=O)(=O)N(C)c2cccc(-c3ccnc4c(C(=O)c5cccs5)cnn34)c2)s1
Response: 4.8

Request: Observed inhibition at 0.1 µM on α2-GABAA receptor (Rattus norvegicus, UniProt P18508+P23576) for CCCN(c1cccc(-c2ccnc3c(C#N)cnn23)c1)S(=O)(=O)C(C)C , please.
Response: 0

Request: What value of inhibition at 0.1 µM on α2-GABAA receptor (Rattus norvegicus, UniProt P18508+P23576) does C#CCN(c1cccc(-c2ccnc3c(C(=O)c4cccs4)cnn23)c1)S(=O)(=O)C(C)C have?
Response: 45.2

Request: Query for α2-GABAA receptor (Rattus norvegicus, UniProt P18508+P23576): what inhibition at 0.1 µM does the record show for CN(c1cccc(-c2ccnc3c(C(=O)c4cccs4)cnn23)c1)S(=O)(=O)c1ccc(Cl)cc1 ?
Response: 0

* * *

Field: inhibition at 0.1 µM. Provide a value for each of the molecules that follow.
Molecular target: α2-GABAA receptor (Rattus norvegicus, UniProt P18508+P23576)
Assay: Ligand-binding assay, radiolabeled flumazenil competition, rat spinal cord membranes
Conditions: read-out: % Inhibition (10^−7 M), affinity for α2-GABAA receptor
Include the unit after the number when you answer.

Request: Record CC(C)S(=O)(=O)N(C)c1cccc(-c2ccnc3c(C(=O)c4cccs4)cnn23)c1 [Example 23] : what is its inhibition at 0.1 µM with α2-GABAA receptor (Rattus norvegicus, UniProt P18508+P23576)?
Response: 45.5%

Request: Which inhibition at 0.1 µM is reported with α2-GABAA receptor (Rattus norvegicus, UniProt P18508+P23576) for this entry: CCN(c1cccc(-c2ccnc3c(C(=O)c4ccccn4)cnn23)c1)S(C)(=O)=O [Example 40] ?
Response: 47.3%

Request: Entry CCN(c1cccc(-c2ccnc3c(C(=O)c4cccs4)cnn23)c1)S(=O)(=O)CC [Example 18] , system α2-GABAA receptor (Rattus norvegicus, UniProt P18508+P23576): what inhibition at 0.1 µM was measured?
Response: 20.7%

Request: Please tell me: inhibition at 0.1 µM of CCN(c1cccc(-c2ccnc3c(C(=O)c4cccs4)cnn23)c1)S(=O)(=O)C(C)C [Example 24] , system α2-GABAA receptor (Rattus norvegicus, UniProt P18508+P23576)?
Response: 10.4%

Request: Find the measured inhibition at 0.1 µM: item CN(c1cccc(-c2ccnc3c(C(=O)c4cccs4)cnn23)c1)S(=O)(=O)c1ccccc1C#N [Example 82] , target or system α2-GABAA receptor (Rattus norvegicus, UniProt P18508+P23576).
Response: 0%

Request: Hi! What's the reported inhibition at 0.1 µM for CCCN(c1cccc(-c2ccnc3c(C(=O)c4cccs4)cnn23)c1)S(=O)(=O)C(C)C [Example 25] on α2-GABAA receptor (Rattus norvegicus, UniProt P18508+P23576)?
Response: 9.1%

Request: State its inhibition at 0.1 µM on α2-GABAA receptor (Rattus norvegicus, UniProt P18508+P23576): CCN(c1cccc(-c2ccnc3c(C(=O)c4ccncc4)cnn23)c1)S(C)(=O)=O [Example 46]
Response: 11.9%
